- SYSTEM_NAME: system Xc^− (Homo sapiens)
- Sequence (Q9UPY5 whole entry): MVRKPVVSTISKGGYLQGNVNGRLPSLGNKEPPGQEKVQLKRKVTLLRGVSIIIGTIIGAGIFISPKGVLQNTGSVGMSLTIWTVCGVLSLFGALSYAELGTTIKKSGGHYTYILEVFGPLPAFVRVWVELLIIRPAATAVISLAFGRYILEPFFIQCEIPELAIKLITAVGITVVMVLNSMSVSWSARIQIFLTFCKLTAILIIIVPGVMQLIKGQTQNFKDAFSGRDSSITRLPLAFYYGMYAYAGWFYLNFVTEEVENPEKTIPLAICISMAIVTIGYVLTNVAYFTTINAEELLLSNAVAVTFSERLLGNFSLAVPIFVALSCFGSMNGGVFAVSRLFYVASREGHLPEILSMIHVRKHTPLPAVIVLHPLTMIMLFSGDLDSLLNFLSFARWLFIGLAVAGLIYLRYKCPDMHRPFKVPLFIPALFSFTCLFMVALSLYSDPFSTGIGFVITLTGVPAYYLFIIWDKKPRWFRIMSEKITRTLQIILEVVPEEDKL
- Sequence (P08195 102-630 partner): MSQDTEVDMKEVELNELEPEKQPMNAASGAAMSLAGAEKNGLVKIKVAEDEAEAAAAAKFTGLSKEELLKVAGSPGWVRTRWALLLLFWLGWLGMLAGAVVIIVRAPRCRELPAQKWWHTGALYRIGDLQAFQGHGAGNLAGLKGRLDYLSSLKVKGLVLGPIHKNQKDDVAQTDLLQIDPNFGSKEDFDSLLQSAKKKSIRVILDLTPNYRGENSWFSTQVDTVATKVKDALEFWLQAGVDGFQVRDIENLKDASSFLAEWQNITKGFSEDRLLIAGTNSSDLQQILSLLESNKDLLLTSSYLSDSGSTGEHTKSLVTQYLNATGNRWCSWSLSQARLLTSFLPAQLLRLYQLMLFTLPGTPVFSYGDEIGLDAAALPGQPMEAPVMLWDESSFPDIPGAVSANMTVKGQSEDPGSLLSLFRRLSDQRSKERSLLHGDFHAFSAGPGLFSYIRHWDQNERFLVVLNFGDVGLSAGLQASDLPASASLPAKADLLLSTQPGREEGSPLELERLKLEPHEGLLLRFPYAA
- PROTOCOL_SUMMARY: Cystine-induced glutamate release assay
- Type: cell-based
- Design: endogenous in cells; host or cells: H4 cells
- CONDITION_SUMMARY: H4 cells, sodium-free HEPES buffer, 50 μM L-Cystine, 2 hours, Amplex Red glutamate readout; read-out: pIC50 Cystine-induced glutamate release assay (converted)
PARAMETER_MEASURED: IC50

Examples with answers:
> print(dat)
                                   compound  parameter.measured    result.value
1  COc1ccc2c(c1)C(C)C(=O)N(CC(=O)Nc1ccc(C(F)(F)F)cc1)c1cc(C)nc(Cl)c1-2 (stereo not drawn)                IC50  39.8 to 100 nM
2  Cc1cc2c(n(C)c1=O)-c1ccccc1C(C)C(=O)N2CC(=O)Nc1ccc(C(F)(F)F)cc1 (single isomer, unassigned)                IC50       < 15.8 nM

Fill in: IC50 of Cc1cc2c(c(F)n1)-c1cccnc1[C@@H](C)C(=O)N2CC(=O)Nc1ccc(C(F)(F)F)cc1 (single isomer, unassigned) is ___
< 15.8 nM

Fill in: IC50 of Cc1cc2c(c(F)n1)-c1cccnc1C(F)C(=O)N2CC(=O)Nc1ccc(C(F)(F)F)cc1 (stereo not drawn) is ___
15.8 to 39.8 nM

Fill in: IC50 of `Cc1cc2c(c(F)n1)-c1c(F)cccc1CC(=O)N2CC(=O)Nc1ccc(C(F)(F)F)cc1` is ___
100 to 501 nM

Fill in: IC50 of `Cc1cc2c(c(C)n1)-c1ccccc1CC(=O)N2CC(=O)Nc1ccc(C(F)(F)F)cc1` is ___
15.8 to 39.8 nM

Fill in: IC50 of `O=C(CN1C(=O)Cc2cc(Cl)ccc2-c2c1cc(C1CC1)nc2Cl)Nc1ccc(C(F)F)cc1` is ___
39.8 to 100 nM

Fill in: IC50 of COc1cc2c(c(F)n1)-c1cccnc1C(C)C(=O)N2CC(=O)Nc1ccc(F)c(Cl)c1 (single isomer, unassigned) is ___
39.8 to 100 nM

Fill in: IC50 of `Cc1ccc2c(n1)CC(=O)N(CC(=O)Nc1ccc(Cl)c(F)c1)c1cc(C)c(C)cc1-2` is ___
100 to 501 nM

Fill in: IC50 of `COc1nc(C)cc2c1-c1cccnc1CC(=O)N2CC(=O)Nc1ccc(C2CC2)cc1` is ___
15.8 to 39.8 nM

Fill in: IC50 of `Cc1cc2c(c(F)n1)-c1cccnc1[C@@H](C)C(=O)N2CC(=O)Nc1ccc2c(c1)OC(F)(F)O2` is ___
39.8 to 100 nM

Fill in: IC50 of CC1C(=O)N(CC(=O)Nc2ccc(C(F)F)cc2)c2cc(N3CC(F)(F)C3)ccc2-c2cccnc21 (single isomer, unassigned) is ___
< 15.8 nM

Fill in: IC50 of Cc1cc2c(c(F)n1)-c1ncccc1C(C)C(=O)N2CC(=O)Nc1ccc(Cl)c(F)c1 (single isomer, unassigned) is ___
< 15.8 nM

Fill in: IC50 of CC1C(=O)N(CC(=O)Nc2ccc(C(F)F)cc2)c2cc(N3CC(F)C3)nc(F)c2-c2cccnc21 (single isomer, unassigned) is ___
< 15.8 nM

Fill in: IC50 of `Cc1cc2c(c(F)n1)-c1c[nH]nc1CC(=O)N2CC(=O)Nc1ccc(C(F)(F)F)cc1` is ___
100 to 501 nM
